Hey, just so you know, these numbers are from ChEMBL document CHEMBL2331117.

# Assay Notes: AUC (0 to infinity) in Beagle dog at 3 mg/kg, iv
# Assay type: ADME, organism-based, Canis lupus familiaris
# Design: time infinity, dose 3 mg/kg, route intravenous
# Recorded Conditions: plasma
Measured Metric: AUC(0-inf) (µM·h)
Numbers only, in µM·h.

Form field: reported AUC(0-inf) of Cc1c(C(=O)N2CCOc3ccc(-c4ccc(N)nc4)cc3C2)ccc(S(C)(=O)=O)c1F
11

----------
# Assay Notes: Drug uptake in tumor of athymic mouse xenografted with human PC3 cells at 100 mg/kg, po after 24 hrs
# Assay type: ADME, organism-based, Neoplasm, PC-3
# Design: dose 100 mg/kg, route oral
# Recorded Conditions: read-out: Drug uptake
Measured Metric: concentration at 24 h (nM)
One number for each entry, in nM.

Form field: reported concentration at 24 h of Cc1c(C(=O)N2CCOc3ccc(-c4ccc(N)nc4)cc3C2)ccc(S(C)(=O)=O)c1F
110
